Listed next: entries and their corresponding RBA.
Biological target: Vitamin D3 receptor (Homo sapiens) (UniProt P11473)
Sequence (P11473 whole entry): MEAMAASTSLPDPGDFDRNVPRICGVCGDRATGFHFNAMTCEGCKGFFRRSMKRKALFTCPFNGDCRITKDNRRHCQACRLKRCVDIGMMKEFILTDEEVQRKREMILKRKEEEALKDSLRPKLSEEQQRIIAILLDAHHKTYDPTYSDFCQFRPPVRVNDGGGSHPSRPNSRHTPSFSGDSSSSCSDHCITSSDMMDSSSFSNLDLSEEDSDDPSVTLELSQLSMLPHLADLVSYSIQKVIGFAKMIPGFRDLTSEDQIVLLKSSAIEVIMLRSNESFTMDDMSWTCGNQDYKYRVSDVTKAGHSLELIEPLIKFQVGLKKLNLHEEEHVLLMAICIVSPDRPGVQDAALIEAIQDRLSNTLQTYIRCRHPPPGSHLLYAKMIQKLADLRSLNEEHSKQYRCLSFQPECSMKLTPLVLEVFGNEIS
Assay: Binding affinity to human full-length Vitamin D receptor assessed as relative binding affinity at 1 uM incubated for 2 hrs by fluorescence polarization based competitive binding assay relative to calcipotriol
Give a bare numeral; the unit % is implied.

Illustrative cases are given below, each with its answer.
compound=C=CCC(O)(CC=C)CCCOc1cccc(COc2ccc(CO)c(CO)c2)c1 measured_parameter=RBA unit_of_measure=% reading=20.2
compound=OCc1ccc(/C=C/c2ccc(OCCCN3CCOCC3)cc2)cc1CO measured_parameter=RBA unit_of_measure=% reading=32.4
compound=OCCCCCOc1cccc(/C=C/c2ccc(CO)c(CO)c2)c1 measured_parameter=RBA unit_of_measure=% reading=5.78
compound=CCN(CC)C(=O)CCCOc1cccc(COc2ccc(CO)c(CO)c2)c1 measured_parameter=RBA unit_of_measure=% reading=8.67
compound=OCCCCCOc1cccc(COc2ccc(CO)c(CO)c2)c1 measured_parameter=RBA unit_of_measure=% reading=9.83
compound="CCC(O)(CC)CCCOc1cccc(C(Oc2ccc(CO)c(CO)c2)C(C)C)c1 (stereo not drawn)" measured_parameter=RBA unit_of_measure=% reading=36.4
compound=O=C(O)CCCOc1cccc(COc2ccc(CO)c(CO)c2)c1 measured_parameter=RBA unit_of_measure=% reading=9.25
compound=OCCCCOc1cccc(CCc2ccc(CO)c(CO)c2)c1 measured_parameter=RBA unit_of_measure=% reading=32.4
compound=CC(C)(O)CCCOc1cccc(CCc2ccc(CO)c(CO)c2)c1 measured_parameter=RBA unit_of_measure=% reading=14.4
compound=CC(C)(O)CCCCOc1ccc(CCc2ccc(CO)c(CO)c2)cc1 measured_parameter=RBA unit_of_measure=% reading=11.6

Lab request: please report RBA under test system Vitamin D3 receptor (Homo sapiens) (UniProt P11473) for CC(C)(O)CCCCOc1cccc(COc2ccc(CO)c(CO)c2)c1
9.25

Lab request: please report RBA under test system Vitamin D3 receptor (Homo sapiens) (UniProt P11473) for CCC(O)(CC)CCCCOc1cccc(COc2ccc(CO)c(CO)c2)c1
35.8

Lab request: please report RBA under test system Vitamin D3 receptor (Homo sapiens) (UniProt P11473) for OCCCCOc1cccc(/C=C/c2ccc(CO)c(CO)c2)c1
11.6

Lab request: please report RBA under test system Vitamin D3 receptor (Homo sapiens) (UniProt P11473) for OCCCCCOc1ccc(/C=C/c2ccc(CO)c(CO)c2)cc1
36.4

Lab request: please report RBA under test system Vitamin D3 receptor (Homo sapiens) (UniProt P11473) for CC(C)(O)CCCOc1cccc(COc2ccc(CO)c(CO)c2)c1
27.2

* * *

Target: UniProtKB P11473
Test: Binding affinity to human full-length Vitamin D receptor assessed as relative binding affinity at 1 uM incubated for 2 hrs by fluorescence polarization based competitive binding assay relative to calcipotriol
Output rule met for RBA not less than 30%; output rule not met otherwise.

These solved cases illustrate the format of a correct answer.
molecule=CCC(O)(CC)CCOc1cccc(/C=C/c2ccc(CO)c(CO)c2)c1 category_label="rule met"
molecule=CN1CCN(CCCOc2ccc(/C=C/c3ccc(CO)c(CO)c3)cc2)CC1 category_label="rule not met"
molecule="CC(O)CCCOc1cccc(/C=C/c2ccc(CO)c(CO)c2)c1 (stereo unspecified)" category_label="rule not met"
molecule=O=C(CCCOc1cccc(COc2ccc(CO)c(CO)c2)c1)N1CCCCC1 category_label="rule not met"
molecule=CCC(O)(CC)CCCCCOc1cccc(/C=C/c2ccc(CO)c(CO)c2)c1 category_label="rule met"
molecule=CC(C)(O)CCCCCOc1cccc(COc2ccc(CO)c(CO)c2)c1 category_label="rule not met"
molecule=O=C(CCCOc1cccc(COc2ccc(CO)c(CO)c2)c1)N1CCOCC1 category_label="rule not met"
molecule=CCC(O)(CC)CCCOc1cccc(CCc2ccc(CO)c(CO)c2)c1 category_label="rule not met"

// switching to the query molecule
Could you please find out whether CCC(O)(CC)CCCCCOc1cccc(COc2ccc(CO)c(CO)c2)c1 has RBA that meets 30% or exceeds it?
rule not met
